B1: Protein S100-G, residues 1 to 79; numbered along this chain, P02633 (parent)
chain: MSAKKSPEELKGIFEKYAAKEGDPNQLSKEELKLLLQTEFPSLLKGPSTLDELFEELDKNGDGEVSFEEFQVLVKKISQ

# Variants of: B1
# test: abundance fitness (aPCA) (normalised: wild type 0, dead -1); higher = more abundant; growth selection in yeast, the domain comes from the species named
# details: Bos taurus
I'd appreciate it if you could supply abundance fitness values for the items below.
Hey, just send me the number, nothing else.

Give the value of abundance fitness reported for the following: F54T
0.03

Give the value of abundance fitness reported for the following: S2E
-0.105

Give the value of abundance fitness reported for the following: D51E
-0.07

Give the value of abundance fitness reported for the following: G12K
0.029

Give the value of abundance fitness reported for the following: E15I
0.078

Give the value of abundance fitness reported for the following: E56H
-0.005

Give the value of abundance fitness reported for the following: E69L
-0.006

Give the value of abundance fitness reported for the following: L57F
-0.014

Give the value of abundance fitness reported for the following: D23W
-0.254

Give the value of abundance fitness reported for the following: Q37A
-0.058

Give the value of abundance fitness reported for the following: K20N
-0.012

Give the value of abundance fitness reported for the following: V72G
0.038

Give the value of abundance fitness reported for the following: G46W
-0.087

Give the value of abundance fitness reported for the following: S6R
-0.232

Give the value of abundance fitness reported for the following: P47Q
0.051

Give the value of abundance fitness reported for the following: V72K
0.022

Give the value of abundance fitness reported for the following: L53A
0.055

Give the value of abundance fitness reported for the following: G46H
0.039

Give the value of abundance fitness reported for the following: Q71M
-0.032

Give the value of abundance fitness reported for the following: A19Q
0.028

Give the value of abundance fitness reported for the following: E52R
-0.046

Give the value of abundance fitness reported for the following: K45M
0.002

Give the value of abundance fitness reported for the following: D51L
-0.072

Give the value of abundance fitness reported for the following: E30Q
0.04

Give the value of abundance fitness reported for the following: E52C
-0.122

Give the value of abundance fitness reported for the following: F14R
-1.37

Give the value of abundance fitness reported for the following: F70W
-0.115

Give the value of abundance fitness reported for the following: M1K
-0.245

Give the value of abundance fitness reported for the following: S6N
-0.161

Give the value of abundance fitness reported for the following: E31W
-0.171

Give the value of abundance fitness reported for the following: V74K
0.041

Give the value of abundance fitness reported for the following: F40G
-0.155

Give the value of abundance fitness reported for the following: D62K
0.004

Give the value of abundance fitness reported for the following: P47L
-0.027

Give the value of abundance fitness reported for the following: S42A
-0.011

Give the value of abundance fitness reported for the following: P41S
0.055

Give the value of abundance fitness reported for the following: K4L
0.051

Give the value of abundance fitness reported for the following: V72Y
-0.059

Give the value of abundance fitness reported for the following: A18T
-0.15

Give the value of abundance fitness reported for the following: L35A
0.02

Give the value of abundance fitness reported for the following: P47Y
0.042

Give the value of abundance fitness reported for the following: L53K
-0.033

Give the value of abundance fitness reported for the following: K20Y
-0.112

Give the value of abundance fitness reported for the following: K33W
-0.479

Give the value of abundance fitness reported for the following: A18D
-0.846

Give the value of abundance fitness reported for the following: L44S
-0.047

Give the value of abundance fitness reported for the following: P24S
0.06

Give the value of abundance fitness reported for the following: S42W
-0.098

Give the value of abundance fitness reported for the following: L73R
-0.473

Give the value of abundance fitness reported for the following: E56P
0.094

Give the value of abundance fitness reported for the following: Q37I
-0.104

Give the value of abundance fitness reported for the following: P41M
-0.091

Give the value of abundance fitness reported for the following: N60C
-0.102

Give the value of abundance fitness reported for the following: V65N
-0.2

Give the value of abundance fitness reported for the following: E68L
-0.098

Give the value of abundance fitness reported for the following: K16C
-0.12

Give the value of abundance fitness reported for the following: P24Q
0.019

Give the value of abundance fitness reported for the following: S48P
0.015

Give the value of abundance fitness reported for the following: E64V
-0.065

Give the value of abundance fitness reported for the following: Q71H
-0.029

Give the value of abundance fitness reported for the following: G12T
0.068

Give the value of abundance fitness reported for the following: Q37M
-0.104

Give the value of abundance fitness reported for the following: I77T
-0.14

Give the value of abundance fitness reported for the following: I13C
-0.093

Give the value of abundance fitness reported for the following: K11L
-0.096

Give the value of abundance fitness reported for the following: L27K
-0.844

Give the value of abundance fitness reported for the following: F67K
-0.172

Give the value of abundance fitness reported for the following: Q79P
0.254

Give the value of abundance fitness reported for the following: P41E
-0.191

Give the value of abundance fitness reported for the following: F67V
-0.059

Give the value of abundance fitness reported for the following: L50I
0.009

Give the value of abundance fitness reported for the following: S6Q
-0.076

Give the value of abundance fitness reported for the following: D23H
-0.074

Give the value of abundance fitness reported for the following: E9D
0.063

Give the value of abundance fitness reported for the following: E56I
-0.208

Give the value of abundance fitness reported for the following: T49Q
0.04

Give the value of abundance fitness reported for the following: K16T
-0.087

Give the value of abundance fitness reported for the following: L43E
0.105

Give the value of abundance fitness reported for the following: K11E
-0.063

Give the value of abundance fitness reported for the following: F40Y
-0.011

Give the value of abundance fitness reported for the following: T49A
0.007

Give the value of abundance fitness reported for the following: P41G
0.002

Give the value of abundance fitness reported for the following: V72E
-0.092

Give the value of abundance fitness reported for the following: L34C
-0.045

Give the value of abundance fitness reported for the following: P7G
-0.121

Give the value of abundance fitness reported for the following: K59Y
-0.079

Give the value of abundance fitness reported for the following: G46T
0.007

Give the value of abundance fitness reported for the following: N25V
-0.066

Give the value of abundance fitness reported for the following: K4N
0.067

Give the value of abundance fitness reported for the following: D58R
-0.072

Give the value of abundance fitness reported for the following: E39N
-0.138
